Sourced from paper PMC9033141

target: CAVA (Homo sapiens); construct: made in house; host or cells: E. coli; assay: Fluorescent thermal shift assay (FTSA), CAVA; assay type: binding; conditions: FTSA, pH 7.0, 37 °C; read-out: Observed Dissociation Constant (Kd_obs), CAVA
Sequence (P35218 39-305): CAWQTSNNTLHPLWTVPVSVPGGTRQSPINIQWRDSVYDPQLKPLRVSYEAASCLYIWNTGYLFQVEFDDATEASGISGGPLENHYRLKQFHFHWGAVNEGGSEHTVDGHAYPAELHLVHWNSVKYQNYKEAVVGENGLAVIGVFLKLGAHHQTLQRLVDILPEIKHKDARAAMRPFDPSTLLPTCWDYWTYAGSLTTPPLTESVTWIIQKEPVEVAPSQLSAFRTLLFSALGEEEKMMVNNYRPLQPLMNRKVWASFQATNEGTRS
pKd: −log10 of the molar value.
Catalogue of pKd readings, one per entry.

{"columns": ["molecule", "limitSign", "pKd"],
 "data": [
  ["CCOC(=O)c1sc(N(CCC(=O)NN)c2ccc(S(N)(=O)=O)cc2)nc1C", "≤", 3.70],
  ["CNC(=S)NNC(=O)CC(CNc1ccc(S(N)(=O)=O)cc1Cl)C(=O)NNC(=S)NC (stereo not shown) [Compound 22b]", "=", 5.17],
  ["NS(=O)(=O)c1ccc(NCC(CC(=O)NN=Cc2ccc(O)cc2)C(=O)NN=Cc2ccc(O)cc2)c(Cl)c1 (stereo not shown)", "=", 5.54],
  ["CCOC(=O)c1sc(N(CCC(=O)NN=Cc2ccccc2)c2ccc(S(N)(=O)=O)cc2)nc1C", "≤", 3.70],
  ["NS(=O)(=O)c1ccc(NCC(CC(=O)NN=Cc2ccc(C(=O)O)cc2)C(=O)NN=Cc2ccc(C(=O)O)cc2)c(Cl)c1 (stereo not shown) [Compound 18b]", "=", 5.17],
  ["NS(=O)(=O)c1ccc(NCC(CC(=O)NNC(=S)Nc2ccccc2)C(=O)NNC(=S)Nc2ccccc2)c(Cl)c1 (stereo not shown) [Compound 23b]", "=", 4.70],
  ["CCOC(=O)c1sc(N(CCC(=O)OC)c2ccc(S(N)(=O)=O)cc2)nc1C", "≤", 3.70]
]}

----------
molecular target: CAII (Homo sapiens); construct: made in house; host or cells: E. coli; assay: biochemical; format: binding; conditions: FTSA, pH 7.0, 37 °C; read-out: Observed Dissociation Constant (Kd_obs), CAII;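 further: recombinant human CAII, thermal shift with ANS dye fluorescence, Kd_obs from fitting melting temperature versus ligand concentration, intrinsic values corrected for deprotonated sulfonamide and Zn-bound water fractions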
Catalogue of Kd readings, one per entry.
quantityName: Kd (nM)

{"columns": ["molecule", "measuredValue"],
 "data": [
  ["NS(=O)(=O)c1ccc(NCC(CC(=O)NN=Cc2ccccc2O)C(=O)NN=Cc2ccccc2O)c(Cl)c1 (stereo not shown)", 170],
  ["NS(=O)(=O)c1ccc(NCC(CC(=O)NN=Cc2cccc(O)c2)C(=O)NN=Cc2cccc(O)c2)c(Cl)c1 (stereo not shown)", 250],
  ["NS(=O)(=O)c1ccc(NCC(CC(=O)NN=Cc2ccccc2Cl)C(=O)NN=Cc2ccccc2Cl)cc1 (stereo not shown) [Compound 10a]", 2500],
  ["Cn1c(CC(CNc2ccc(S(N)(=O)=O)cc2Cl)c2n[nH]c(=S)n2C)n[nH]c1=S (stereo not shown) [Compound 24b]", 250],
  ["Cc1ccc(C)n1NC(=O)CC(CNc1ccc(S(N)(=O)=O)cc1Cl)C(=O)Nn1c(C)ccc1C (stereo not shown) [Compound 19b]", 50],
  ["CCC(C)=NN1C(=O)CC(CNc2ccc(S(N)(=O)=O)cc2)C1=O (stereo not shown)", 40000],
  ["NS(=O)(=O)c1ccc(NCC(CC(=O)NN=Cc2ccccc2[N+](=O)[O-])C(=O)NN=Cc2ccccc2[N+](=O)[O-])c(Cl)c1 (stereo not shown) [Compound 15b]", 500]
]}

----------
target: CAVII (Homo sapiens); construct: made in house; host or cells: E. coli; test: Fluorescent thermal shift assay (FTSA), CAVII; assay type: binding; settings: Observed Dissociation Constant (Kd_obs), CAVII, FTSA, pH 7.0, 37 °C
Sequence (P43166 whole entry): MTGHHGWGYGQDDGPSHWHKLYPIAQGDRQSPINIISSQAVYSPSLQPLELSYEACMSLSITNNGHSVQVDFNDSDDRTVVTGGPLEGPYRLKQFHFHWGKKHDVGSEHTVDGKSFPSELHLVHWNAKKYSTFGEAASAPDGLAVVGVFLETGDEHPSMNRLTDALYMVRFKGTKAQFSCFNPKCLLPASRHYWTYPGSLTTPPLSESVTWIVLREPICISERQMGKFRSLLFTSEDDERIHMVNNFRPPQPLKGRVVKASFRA
quantityName: Kd (µM)

{"columns": ["compound", "studySystem", "quantityName", "measuredValue"],
 "data": [
  ["NS(=O)(=O)c1ccc(NCC(CC(=O)NN=Cc2ccc(O)cc2)C(=O)NN=Cc2ccc(O)cc2)c(Cl)c1 (stereo not shown)", "CAVII (Homo sapiens)", "Kd", 0.25]
]}
